Assay Target: ret kinase (intracellular portion of ret, amino acids 713-1072 of the short isoform) (Homo sapiens)
Sequence (P07949 713-1072 isoform P07949-2): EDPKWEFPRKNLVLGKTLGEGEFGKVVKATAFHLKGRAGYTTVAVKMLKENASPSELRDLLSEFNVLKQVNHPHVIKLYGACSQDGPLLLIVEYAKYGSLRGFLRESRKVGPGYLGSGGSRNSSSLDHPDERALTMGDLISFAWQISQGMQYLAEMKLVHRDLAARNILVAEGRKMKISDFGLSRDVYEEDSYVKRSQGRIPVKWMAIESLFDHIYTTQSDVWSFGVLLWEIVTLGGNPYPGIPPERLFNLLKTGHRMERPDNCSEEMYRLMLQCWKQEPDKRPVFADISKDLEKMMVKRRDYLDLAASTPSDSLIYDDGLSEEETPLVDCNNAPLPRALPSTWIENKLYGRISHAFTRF
Measurement Protocol: Ret kinase enzyme assay
Format: biochemical
Settings: ret kinase enzyme assay; read-out: Ret, range of activity, pIC50 values (converted)
Experimental: The ret kinase assay used the intracellular portion of ret (amino acids 713-1072 of the short isoform) produced in SF9 insect cells and purified on a nickel column. […] The components were incubated in triplicate for 30 minutes at room temperature within a 96-well plate in triplicate. […] Each phosphocellulase filter was transferred into a separate scintillation vial, 1 ml cytoscint fluid was added, and the sample counted on a Packard 1900TR liquid scintillation analyzer for 1 minute. […]
Parameter Measured: IC50

compound="Oc1cc(Nc2ccnc3cc(-c4cc5ccccc5o4)ccc23)ccc1Br [Example 3]" result="0.01 to 0.1 µM"
compound="Oc1cccc(Nc2ccnc3cc(-c4ccccn4)ccc23)c1 [Example 1]" result="< 0.01 µM"
compound="OCc1nc(-c2ccc3c(Nc4cc(O)c(F)cc4Cl)ccnc3c2)cs1 [Example 7]" result="0.01 to 0.1 µM"
compound="Cc1ccc(O)cc1Nc1ccnc2ccc(C(=O)NC(C)C)cc12 [Example 10]" result="0.01 to 0.1 µM"

Lab note: next compound to report on.
Documented IC50 of CS(=O)(=O)c1ccc2nccc(Nc3cc(O)c(F)cc3Cl)c2c1 [Example 6] : < 0.01 µM
